- experimental.target: T1, human EphA1 (Homo sapiens, UniProt P21709)
- T1 construct: a protein of the extracellular region of each human Eph receptor fused with the SEAP protein and the His tag; made in house; host or cells: Expi293F cells (culture supernatant)
- T1 sequence (P21709 26-547 limits assumed): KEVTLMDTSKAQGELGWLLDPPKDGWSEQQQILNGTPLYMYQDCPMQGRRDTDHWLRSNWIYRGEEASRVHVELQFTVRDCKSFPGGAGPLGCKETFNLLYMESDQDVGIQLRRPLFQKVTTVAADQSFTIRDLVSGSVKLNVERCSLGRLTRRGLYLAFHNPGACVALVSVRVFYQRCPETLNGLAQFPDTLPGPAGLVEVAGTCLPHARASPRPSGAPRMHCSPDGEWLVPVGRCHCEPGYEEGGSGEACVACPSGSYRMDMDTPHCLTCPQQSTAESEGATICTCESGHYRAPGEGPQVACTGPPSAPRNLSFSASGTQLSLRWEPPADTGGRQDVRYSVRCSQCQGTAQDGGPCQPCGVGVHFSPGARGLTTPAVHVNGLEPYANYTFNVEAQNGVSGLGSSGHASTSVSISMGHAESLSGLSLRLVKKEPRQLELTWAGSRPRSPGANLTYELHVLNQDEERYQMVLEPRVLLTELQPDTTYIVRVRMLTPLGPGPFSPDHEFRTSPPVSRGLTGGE
- protocol.details: Selectivity ELISA of humanized antibodies for human Eph receptor
- Assay type: binding
- conditions: coated protein 1 nM
result.type: hEphA1-SEAP-: absorbance at 450 nm, percentage with respect to hEphA4-SEAP-His as 100% (%)
Write it as a number; the unit % goes unstated.

Record 155 (antibody, V domains shown, synthetic humanized antibody heavy chain variable region sequence; synthetic humanized antibody light chain variable region sequence) VH: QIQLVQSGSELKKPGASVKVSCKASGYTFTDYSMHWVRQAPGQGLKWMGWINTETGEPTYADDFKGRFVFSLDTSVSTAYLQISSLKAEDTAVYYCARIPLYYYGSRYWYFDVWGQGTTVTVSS VL: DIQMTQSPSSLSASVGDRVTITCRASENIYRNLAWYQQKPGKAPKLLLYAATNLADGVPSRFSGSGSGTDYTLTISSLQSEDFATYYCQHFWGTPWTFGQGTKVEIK , field hEphA1-SEAP-: absorbance at 450 nm, percentage with respect to hEphA4-SEAP-His as 100%: 5.5

Record 138 (antibody, V domains shown, synthetic humanized antibody heavy chain variable region sequence; synthetic humanized antibody light chain variable region sequence) VH: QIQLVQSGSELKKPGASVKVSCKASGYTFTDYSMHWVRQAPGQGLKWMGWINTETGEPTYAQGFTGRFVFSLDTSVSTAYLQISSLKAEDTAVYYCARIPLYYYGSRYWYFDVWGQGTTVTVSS VL: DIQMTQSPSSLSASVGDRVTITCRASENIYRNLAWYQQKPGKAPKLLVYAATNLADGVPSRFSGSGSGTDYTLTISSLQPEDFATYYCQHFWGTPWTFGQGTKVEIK , field hEphA1-SEAP-: absorbance at 450 nm, percentage with respect to hEphA4-SEAP-His as 100%: 5.2

Record 141 (antibody, V domains shown, synthetic humanized antibody heavy chain variable region sequence; synthetic humanized antibody light chain variable region sequence) VH: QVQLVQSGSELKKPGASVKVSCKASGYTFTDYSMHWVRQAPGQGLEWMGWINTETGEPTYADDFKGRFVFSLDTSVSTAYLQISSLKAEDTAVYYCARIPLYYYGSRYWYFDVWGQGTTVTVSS VL: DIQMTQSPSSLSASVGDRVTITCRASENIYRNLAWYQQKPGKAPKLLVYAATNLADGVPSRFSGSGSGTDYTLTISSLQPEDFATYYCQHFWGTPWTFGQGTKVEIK , field hEphA1-SEAP-: absorbance at 450 nm, percentage with respect to hEphA4-SEAP-His as 100%: 5.3

Record 135 (antibody, V domains shown, synthetic humanized antibody heavy chain variable region sequence; synthetic humanized antibody light chain variable region sequence) VH: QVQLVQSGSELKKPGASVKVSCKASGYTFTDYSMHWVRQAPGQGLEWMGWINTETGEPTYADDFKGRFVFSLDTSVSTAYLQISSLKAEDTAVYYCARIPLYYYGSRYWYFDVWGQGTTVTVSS VL: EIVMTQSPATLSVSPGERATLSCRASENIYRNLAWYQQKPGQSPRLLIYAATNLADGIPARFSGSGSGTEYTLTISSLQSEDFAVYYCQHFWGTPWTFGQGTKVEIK , field hEphA1-SEAP-: absorbance at 450 nm, percentage with respect to hEphA4-SEAP-His as 100%: 5.2

Record 157 (antibody, V domains shown, synthetic humanized antibody heavy chain variable region sequence; synthetic humanized antibody light chain variable region sequence) VH: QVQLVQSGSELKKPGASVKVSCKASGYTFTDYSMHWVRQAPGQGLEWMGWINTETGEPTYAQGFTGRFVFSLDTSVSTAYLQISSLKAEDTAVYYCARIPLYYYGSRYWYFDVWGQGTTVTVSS VL: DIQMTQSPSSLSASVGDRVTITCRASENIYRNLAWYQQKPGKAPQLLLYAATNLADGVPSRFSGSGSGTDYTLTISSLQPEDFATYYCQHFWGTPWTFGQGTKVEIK , field hEphA1-SEAP-: absorbance at 450 nm, percentage with respect to hEphA4-SEAP-His as 100%: 6.2

Record 67 (antibody, V domains shown, synthetic humanized antibody heavy chain variable region sequence; synthetic humanized antibody light chain variable region sequence) VH: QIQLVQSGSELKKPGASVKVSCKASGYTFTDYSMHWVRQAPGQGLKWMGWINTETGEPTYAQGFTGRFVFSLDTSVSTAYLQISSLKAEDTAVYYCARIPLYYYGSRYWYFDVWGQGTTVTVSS VL: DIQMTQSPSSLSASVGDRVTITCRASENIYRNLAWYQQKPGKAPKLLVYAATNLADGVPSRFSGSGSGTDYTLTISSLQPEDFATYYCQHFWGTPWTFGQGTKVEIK , field hEphA1-SEAP-: absorbance at 450 nm, percentage with respect to hEphA4-SEAP-His as 100%: 4.6

Record 92 (antibody, V domains shown, constant regions without entry; synthetic humanized antibody light chain variable region sequence; synthetic humanized antibody heavy chain variable region sequence) VL: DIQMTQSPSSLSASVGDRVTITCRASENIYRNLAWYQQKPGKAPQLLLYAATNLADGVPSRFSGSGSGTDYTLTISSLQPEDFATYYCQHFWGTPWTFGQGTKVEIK VH: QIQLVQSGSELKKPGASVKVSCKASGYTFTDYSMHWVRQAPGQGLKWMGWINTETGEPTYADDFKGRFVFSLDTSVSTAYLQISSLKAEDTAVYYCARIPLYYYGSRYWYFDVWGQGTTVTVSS , field hEphA1-SEAP-: absorbance at 450 nm, percentage with respect to hEphA4-SEAP-His as 100%: 7.0
